From: patent US6737383B1

System: crabgrass
Experiment: Test B pre/postemergence crabgrass
Assay type: in vivo, Digitaria sanguinalis
Conditions: Preemergence, Rate 250 g/ha; scale 0 to 10 (0 no effect, 10 complete control)
Exercise: for every item that follows, state its recorded Plant response rating, Crabgrass.

compound="CC(C)N(C(=O)n1oc(=O)n(C(C)C=O)c1=O)c1ccccc1 (centres unmarked) [Compound 693]" assay_metric="Plant response rating, Crabgrass" test_result=0
compound="COC(=O)C(CCO)n1c(=O)on(C(=O)N(c2ccc(F)cc2)C(C)C)c1=O (centres unmarked) [Compound 680]" assay_metric="Plant response rating, Crabgrass" test_result=3
compound="CC(C)N(C(=O)n1oc(=O)n(CC2CCCCO2)c1=O)c1ccc(Cl)cc1 (centres unmarked) [Compound 660]" assay_metric="Plant response rating, Crabgrass" test_result=8

Report Plant response rating, Crabgrass for every entry below.
1. COCCn1c(=O)on(C(=O)N(c2ccc(F)cc2F)C(C)C)c1=O [Compound 628]
2. C=C(Cc1ccccc1)Cn1c(=O)on(C(=O)N(c2ccccc2)C(C)C)c1=O [Compound 650]

Result:
1. 9
2. 9

###

Test system: rape
Test: Test B pre/postemergence rape
Type: in vivo, Brassica napus
Details: Preemergence, Rate 250 g/ha; scale 0 to 10 (0 no effect, 10 complete control)
Field: Plant response rating, Rape. Provide a value for each of the molecules that follow.
Give bare numbers.

molecule="C=C(Cc1ccccc1)Cn1c(=O)on(C(=O)N(c2ccccc2)C(C)C)c1=O [Compound 650]" tested_system=rape assay_metric="Plant response rating, Rape" test_result=0

Please give Plant response rating, Rape, item by item, for the list that follows.
1. CC(C)N(C(=O)n1oc(=O)n(CC2CCCCO2)c1=O)c1ccccc1 (centres unmarked) [Compound 659]
2. C#CC(C)n1c(=O)on(C(=O)N(c2ccc(Cl)cc2)C(C)C)c1=O (racemic) [Compound 658]
3. CC(C)N(C(=O)n1oc(=O)n(CC2CCCCO2)c1=O)c1ccc(Cl)cc1 (centres unmarked) [Compound 660]
4. CC(C)N(C(=O)n1oc(=O)n(CSC#N)c1=O)c1ccc(F)cc1 [Compound 618]

Result:
[2, 5, 3, 0]

###

Assignment: determine reported Giant foxtail plant response rating for the given compounds.
System: giant foxtail
Test: Test B pre/postemergence giant foxtail
Type: in vivo, Setaria faberii
Conditions: Rate 62 g/ha, Postemergence; scale of 0 to 10 where 0 is no effect and 10 is complete control

Would you please look over these solved cases?
entry_smiles=CC(C)N(C(=O)n1oc(=O)n(C(C)C)c1=O)c1ccc(Cl)cc1 test_result=5
entry_smiles=CC(C)c1noc(C(C)C)c1-n1c(=O)on(C(=O)N(c2ccc(F)cc2)C(C)C)c1=O test_result=0
entry_smiles=CC(C)N(C(=O)n1oc(=O)n(CCl)c1=O)c1ccc(F)cc1 test_result=0

Field: Giant foxtail plant response rating. Fill in for each record below.
1. COc1cc(C)cc(C)c1-n1c(=O)on(C(=O)N(c2ccc(F)cc2F)C(C)C)c1=O
2. COc1nc(OC)nc(N(C(=O)n2oc(=O)n(-c3ccccc3C)c2=O)C(C)C)n1
3. CSc1ccc(N(C(=O)n2oc(=O)n(-c3ccccc3C)c2=O)C(C)C)cc1

Result:
0
0
0

Kindly give each listed record's Giant foxtail plant response rating.
1. Cc1nn(C)c(Cl)c1-n1c(=O)on(C(=O)N(c2ccccc2)C(C)C)c1=O
2. Cc1ccccc1-n1c(=O)on(C(=O)N(c2ccc(Br)cc2)C(C)C)c1=O
3. CC(C)N(C(=O)n1oc(=O)n([C@H](C)c2ccccc2)c1=O)c1ccc(F)cc1
4. Cc1nnsc1Cn1c(=O)on(C(=O)N(c2ccccc2)C(C)C)c1=O
5. CC(=O)Cn1c(=O)on(C(=O)N(c2ccc(F)cc2)C(C)C)c1=O

Result:
[1, 0, 0, 0, 1]

Return reported Giant foxtail plant response rating values for all items listed beneath this line.
1. CC(C)N(C(=O)n1oc(=O)n(CCC#N)c1=O)c1ccc(F)cc1
2. CCC(CC)n1c(=O)on(C(=O)N(c2ccccc2)C(C)C)c1=O
3. CC(C)N(C(=O)n1oc(=O)n(C2CCCCC2)c1=O)c1ccc(F)cc1F

Result:
1: 7; 2: 0; 3: 0

###

I'd appreciate it if you could supply Blackgrass plant response rating values for the items below.
Tested on: blackgrass
Experiment: Test B pre/postemergence blackgrass
Assay type: in vivo, Alopecurus myosuroides
Details: Preemergence, Rate 250 g/ha; scale 0 to 10, 0 is no effect, 10 is complete control
Answers are plain numbers.

Return reported Blackgrass plant response rating values for all items listed beneath this line.
1. CC(C)N(C(=O)n1oc(=O)n(CCNC(=O)CCl)c1=O)c1ccccc1
2. Cc1ccccc1-n1c(=O)on(C(=O)N(c2ccc(Cl)cc2Cl)C(C)C)c1=O
3. CC(C)N(C(=O)n1oc(=O)n(C(C)Cl)c1=O)c1ccccc1 (centres unmarked)
4. Cc1nc(C)c(Cn2c(=O)on(C(=O)N(c3ccc(F)cc3)C(C)C)c2=O)s1
5. C=CCn1c(=O)on(C(=O)N(c2ccc(F)cc2F)C(C)C)c1=O
6. Cc1nc(C)c(C(C)n2c(=O)on(C(=O)N(c3ccccc3)C(C)C)c2=O)s1 (centres unmarked)

Result:
0
0
2
6
10
0

For every listed record, write down its Blackgrass plant response rating.
1. CC(C)N(C(=O)n1oc(=O)n(C(C)C(=O)N(C)C)c1=O)c1ccccc1 (centres unmarked)
2. CC(C)N(C(=O)n1oc(=O)n(CC(=O)N(C)C)c1=O)c1ccc(Cl)cc1

Result:
8
7

###

So I've got a bunch of compounds here, and I need their Crabgrass plant response rating values.
Tested on: crabgrass
Assay: Test B pre/postemergence crabgrass
Format: in vivo, Digitaria sanguinalis
Conditions: Preemergence, Rate 62 g/ha; scale of 0 to 10 where 0 is no effect and 10 is complete control

Please review the entries below; each comes with its answer.
compound=Cc1ccccc1-n1c(=O)on(C(=O)N(c2ccc(OC(F)(F)F)cc2)C(C)C)c1=O test_result=0
compound="CC(C)N(C(=O)n1oc(=O)n(C(C)C(=S)N(C)C)c1=O)c1ccccc1 (centres unmarked)" test_result=5
compound="C#CC(C)n1c(=O)on(C(=O)N(c2ccc(Cl)cc2)C(C)C)c1=O (racemic)" test_result=3

Quick request: Crabgrass plant response rating for each listed item, please.
1. Cc1c(-n2c(=O)on(C(=O)N(c3ccc(Cl)cc3)C(C)C)c2=O)ccc2ccccc12
2. CC[C@H](C)n1c(=O)on(C(=O)N(c2ccc(Cl)cc2)C(C)C)c1=O

Result:
[0, 4]

###

Consider the following compounds; for each one, report its Plant response rating, Blackgrass.
System: blackgrass
Test: Test B pre/postemergence blackgrass
Type: in vivo, Alopecurus myosuroides
Details: Rate 250 g/ha, Postemergence; scale 0 to 10, 0 is no effect, 10 is complete control
One number for each entry.

The examples below pair each entry with its known result.
compound="C=CCn1c(=O)on(C(=O)N(c2ccc(F)cc2F)C(C)C)c1=O [Compound 151]" tested_system=blackgrass test_result=8
compound="CCCn1c(=O)on(C(=O)N(c2ccc(F)cc2F)C(C)C)c1=O [Compound 130]" tested_system=blackgrass test_result=7
compound="Cc1ccccc1-n1c(=O)on(C(=O)N(c2ccc(Br)cc2)C(C)C)c1=O [Compound 175]" tested_system=blackgrass test_result=0

Task: Please look up its Plant response rating, Blackgrass: CC(C)c1noc(C(C)C)c1-n1c(=O)on(C(=O)N(c2ccc(F)cc2)C(C)C)c1=O [Compound 135]
Result: 0

###

System: velvetleaf
Assay: Test B pre/postemergence velvetleaf
Type: in vivo, Abutilon theophrasti
Settings: Preemergence, Rate 500 g/ha; scale of 0 to 10 where 0 is no effect and 10 is complete control
assay metric: Velvetleaf plant response rating
Answers are plain numbers.

compound="CC(C)C(C)n1c(=O)on(C(=O)N(c2ccccc2)C(C)C)c1=O (centres unmarked)" test_result=5
compound=CC(C)N(C(=O)n1oc(=O)n(CCC#N)c1=O)c1ccc(F)cc1 test_result=6
compound=Cc1nsc(Cl)c1Cn1c(=O)on(C(=O)N(c2ccccc2)C(C)C)c1=O test_result=0
compound="CC(C)N(C(=O)n1oc(=O)n(C(C)C(=O)c2ccccc2)c1=O)c1ccc(F)cc1F (centres unmarked)" test_result=0
compound=Cc1nnsc1Cn1c(=O)on(C(=O)N(c2ccccc2)C(C)C)c1=O test_result=0
compound=CCN(CC)C(=O)Cn1c(=O)on(C(=O)N(c2ccccc2)C(C)C)c1=O test_result=0
compound=CC(C)N(C(=O)n1oc(=O)n(-c2ccc3ccccc3c2)c1=O)c1ccc(Cl)cc1 test_result=0

Task: Query: Velvetleaf plant response rating; subject: C=CCCCn1c(=O)on(C(=O)N(c2ccc(Cl)cc2)C(C)C)c1=O
Result: 2

###

System: wild oat
Assay: Test B pre/postemergence wild oat
Assay type: in vivo, Avena fatua
Conditions: Preemergence, Rate 125 g/ha; scale of 0 to 10 where 0 is no effect and 10 is complete control
Can you tell me Wild oats plant response rating for the items I'm about to list?
Answers are plain numbers.

compound=COCCn1c(=O)on(C(=O)N(c2ccc(F)cc2F)C(C)C)c1=O assay_metric="Wild oats plant response rating" test_result=2
compound=CC[C@H](C)n1c(=O)on(C(=O)N(c2ccc(F)cc2F)C(C)C)c1=O assay_metric="Wild oats plant response rating" test_result=6
compound=CC[C@H](C)n1c(=O)on(C(=O)N(c2ccc(Cl)cc2)C(C)C)c1=O assay_metric="Wild oats plant response rating" test_result=3
compound=C=C(Cc1ccccc1)Cn1c(=O)on(C(=O)N(c2ccccc2)C(C)C)c1=O assay_metric="Wild oats plant response rating" test_result=0
compound=C#CC=CC(C)(C)n1c(=O)on(C(=O)N(c2ccccc2)C(C)C)c1=O assay_metric="Wild oats plant response rating" test_result=0
compound=CC(C)N(C(=O)n1oc(=O)n(CCCC(F)(F)F)c1=O)c1ccccc1 assay_metric="Wild oats plant response rating" test_result=3

Give Wild oats plant response rating for all compounds that follow.
1. COCCn1c(=O)on(C(=O)N(c2ccc(F)cc2)C(C)C)c1=O
2. CC(C)N(C(=O)n1oc(=O)n(CSC#N)c1=O)c1ccc(F)cc1

Result:
[3, 0]

Task: Notebook entry, wild oat assay: Wild oats plant response rating of C#CC(C)n1c(=O)on(C(=O)N(c2ccc(Cl)cc2)C(C)C)c1=O (racemic) = ?
Result: 2
